Hey, just so you know, these numbers are from patent US10716795B2.

Measured solubility, listed per entry for reference.
Experiment notes: physchem
Condition description: aqueous buffer, thermodynamic from solid
Counter-ions that a name gives are not always drawn.

{"Compound": "CC(=O)[C@H]1CCC2C3CCC4=C[C@@H](OC(=O)[C@@H](N)C(C)C)CC[C@]4(C)C3CC[C@@]21C (stereo partly drawn) [Compound P1-31, 3β-L-Valine-progesterone-HC]", "solubility (µg/mL)": 3850}
{"Compound": "CC(=O)[C@H]1CCC2C3CC[C@@H]4C[C@H](OC(=O)[C@@H](N)C(C)C)CC[C@]4(C)C3CC[C@@]21C (stereo partly drawn) [Compound P1-133, 3α-L-Valine-5-pregnane-20-one HCl Salt]", "solubility (µg/mL)": 330}
{"Compound": "CC(=O)[C@H]1CC[C@H]2[C@@H]3CCC4=C/C(=N/OC(=O)[C@@H](N)C(C)C)CC[C@]4(C)[C@H]3CC[C@]12C [Compound P1-185, 3-Valine-E-oxime-progesterone HCl]", "solubility (µg/mL)": 13000}
